# target: HLA B*0702 (human)
# assay-protocol: competition with radiolabeled probe peptide, purified MHC
endpoint: pIC50
When answering, recall that pIC50 equals minus log10 of the concentration in mol/L, and write that number alone.

Problem: Annotate the binder RPMPGTRKV (modifications not checked) [NS52860-2868] with its measured pIC50.
Solution: 8.57
